- Tested on: Staphylococcus aureus
- experimentalDetails: Antibacterial activity against methicillin-resistant Staphylococcus aureus M14 incubated for 16 to 20 hrs by broth microdilution method
- Type: functional
- conditionDetails: time 16-20 hrs
Quick reference: MIC of the listed items.

smilesText: CCCCNC(=O)C[n+]1ccc(SCCCCOc2ccc3ccc(=O)oc3c2CC=C(C)C)cc1.[Br-]
MIC (µg/mL): 2
//
smilesText: CCCCCNC(=O)C[n+]1ccc(SCCCOc2ccc3ccc(=O)oc3c2CC=C(C)C)cc1.[Br-]
MIC (µg/mL): 2
//
smilesText: CCCCCNC(=O)C[n+]1ccc(SCCCCCOc2ccc3ccc(=O)oc3c2CC=C(C)C)cc1.[Br-]
MIC (µg/mL): 0.5
//
smilesText: CCCN(CCC)C(=O)C[n+]1ccc(SCCCCCOc2ccc3ccc(=O)oc3c2CC=C(C)C)cc1.[Br-]
MIC (µg/mL): 1
//
smilesText: CCCN(CCC)C(=O)C[n+]1ccc(SCCCOc2ccc3ccc(=O)oc3c2CC=C(C)C)cc1.[Br-]
MIC (µg/mL): 8
//
smilesText: CCCCCCNC(=O)C[n+]1ccc(SCCCCOc2ccc3ccc(=O)oc3c2CC=C(C)C)cc1.[Br-]
MIC (µg/mL): 1
//
smilesText: CC(C)=CCc1c(OCCCCCSc2cc[n+](CC(=O)N(CC(C)C)CC(C)C)cc2)ccc2ccc(=O)oc12.[Br-]
MIC (µg/mL): 8
//
smilesText: CC(C)=CCc1c(OCCCCCSc2cc[n+](CC(=O)N(C(C)C)C(C)C)cc2)ccc2ccc(=O)oc12.[Br-]
MIC (µg/mL): 2
//
smilesText: CCCCNC(=O)C[n+]1ccc(SCCCOc2ccc3ccc(=O)oc3c2CC=C(C)C)cc1.[Br-]
MIC (µg/mL): 4
//
smilesText: CCCCCCNC(=O)C[n+]1ccc(SCCCCCOc2ccc3ccc(=O)oc3c2CC=C(C)C)cc1.[Br-]
MIC (µg/mL): 2
